FYI, the data here is from the supplement of paper PMC11246515.

Let's look at some sequences and their measured total protein half-life in vivo.
ASSAY: total protein half-life in vivo (active degradation + dilution); higher = more stable protein
CONDITION_PARAMETERS: E. coli NCM3722 delta-hslV; growth: N-lim chemostat; doubling time 6 h
OBSERVED_PROPERTY: total protein half-life in vivo (h)

{"SEQ": "MSNTPIELKGSSFTLSVVHLHEAEPKVIHQALEDKIAQAPAFLKHAPVVLNVSALEDPVNWSAMHKAVSATGLRVIGVSGCKDAQLKAEIEKMGLPILTEGKEKAPRPAPTPQAPAQNTTPVTKTRLIDTPVRSGQRIYAPQCDLIVTSHVSAGAELIADGNIHVYGMMRGRALAGASGDRETQIFCTNLMAELVSIAGEYWLSDQIPAEFYGKAARLQLVENALTVQPLN", "OBSERVED_PROPERTY": "total protein half-life in vivo", "QUANTITATIVE_RESULT": 5.32}
{"SEQ": "MCTTCGCGEGNLYIEGDEHNPHSAFRSAPFAPAARPKMKITGIKAPEFTPSQTEEGDLHYGHGEAGTHAPGMSQRRMLEVEIDVLDKNNRLAERNRARFAARKQLVLNLVSSPGSGKTTLLTETLMRLKDSVPCAVIEGDQQTVNDAARIRATGTPAIQVNTGKGCHLDAQMIADAAPRLPLDDNGILFIENVGNLVCPASFDLGEKHKVAVLSVTEGEDKPLKYPHMFAAASLMLLNKVDLLPYLNFDVEKCIACAREVNPEIEIILISATSGEGMDQWLNWLETQRCA [P0AAN3]", "OBSERVED_PROPERTY": "total protein half-life in vivo", "QUANTITATIVE_RESULT": 2.72}
{"SEQ": "MSTLGHQYDNSLVSNAFGFLRLPMNFQPYDSDADWVITGVPFDMATSGRAGGRHGPAAIRQVSTNLAWEHNRFPWNFDMRERLNVVDCGDLVYAFGDAREMSEKLQAHAEKLLAAGKRMLSFGGDHFVTLPLLRAHAKHFGKMALVHFDAHTDTYANGCEFDHGTMFYTAPKEGLIDPNHSVQIGIRTEFDKDNGFTVLDACQVNDRSVDDVIAQVKQIVGDMPVYLTFDIDCLDPAFAPGTGTPVIGGLTSDRAIKLVRGLKDLNIVGMDVVEVAPAYDQSEITALAAATLALEMLYIQAAKKGE", "OBSERVED_PROPERTY": "total protein half-life in vivo", "QUANTITATIVE_RESULT": 5.33}
{"SEQ": "MNIYTFDFDEIESQEDFYRDFSQTFGLAKDKVRDLDSLWDVLMNDVLPLPLEIEFVHLGEKTRRRFGALILLFDEAEEELEGHLRFNVRH", "OBSERVED_PROPERTY": "total protein half-life in vivo", "QUANTITATIVE_RESULT": 5.5}
{"SEQ": "MTSLVSLENVSVSFGQRRVLSDVSLELKPGKILTLLGPNGAGKSTLVRVVLGLVTPDEGVIKRNGKLRIGYVPQKLYLDTTLPLTVNRFLRLRPGTHKEDILPALKRVQAGHLINAPMQKLSGGETQRVLLARALLNRPQLLVLDEPTQGVDVNGQVALYDLIDQLRRELDCGVLMVSHDLHLVMAKTDEVLCLNHHICCSGTPEVVSLHPEFISMFGPRGAEQLGIYRHHHNHRHDLQGRIVLRRGNDRS [P0A9X1]", "OBSERVED_PROPERTY": "total protein half-life in vivo", "QUANTITATIVE_RESULT": 2.88}
{"SEQ": "MKIISKMLVGALALAVTNVYAAELMTKAEFEKVESQYEKIGDISTSNEMSTADAKEDLIKKADEKGADVLVLTSGQTDNKIHGTANIYKKK", "OBSERVED_PROPERTY": "total protein half-life in vivo", "QUANTITATIVE_RESULT": 5.83}
{"SEQ": "MQNRLTIKDIARLSGVGKSTVSRVLNNESGVSQLTRERVEAVMNQHGFSPSRSARAMRGQSDKVVAIIVTRLDSLSENLAVQTMLPAFYEQGYDPIMMESQFSPQLVAEHLGVLKRRNIDGVVLFGFTGITEEMLAHWQSSLVLLARDAKGFASVCYDDEGAIKILMQRLYDQGHRNISYLGVPHSDVTTGKRRHEAYLAFCKAHKLHPVAALPGLAMKQGYENVAKVITPETTALLCATDTLALGASKYLQEQRIDTLQLASVGNTPLMKFLHPEIVTVDPGYAEAGRQAACQLIAQVTGRSEPQQIIIPATLS", "OBSERVED_PROPERTY": "total protein half-life in vivo", "QUANTITATIVE_RESULT": 5.41}
{"SEQ": "MQFSKMHGLGNDFMVVDAVTQNVFFSPELIRRLADRHLGVGFDQLLVVEPPYDPELDFHYRIFNADGSEVAQCGNGARCFARFVRLKGLTNKRDIRVSTANGRMVLTVTDDDLVRVNMGEPNFEPSAVPFRANKAEKTYIMRAAEQTILCGVVSMGNPHCVIQVDDVDTAAVETLGPVLESHERFPERANIGFMQVVKREHIRLRVYERGAGETQACGSGACAAVAVGIQQGLLAEEVRVELPGGRLDIAWKGPGHPLYMTGPAVHVYDGFIHL [P0A6K1]", "OBSERVED_PROPERTY": "total protein half-life in vivo", "QUANTITATIVE_RESULT": 5.87}
{"SEQ": "MNNMNVIIADDHPIVLFGIRKSLEQIEWVNVVGEFEDSTALINNLPKLDAHVLITDLSMPGDKYGDGITLIKYIKRHFPSLSIIVLTMNNNPAILSAVLDLDIEGIVLKQGAPTDLPKALAALQKGKKFTPESVSRLLEKISAGGYGDKRLSPKESEVLRLFAEGFLVTEIAKKLNRSIKTISSQKKSAMMKLGVENDIALLNYLSSVTLSPADKD [P0DMC7]", "OBSERVED_PROPERTY": "total protein half-life in vivo", "QUANTITATIVE_RESULT": 2.69}
{"SEQ": "MPFRSNNPITRDELLSRFFPQYHPVTTFNSGLSGGSFLIEHQGQRFVVRQPHDPDAPQSAFLRQYRALSQLPACIAPKPHLYLRDWMVVDYLPGAVKTYLPDTNELAGLLYYLHQQPRFGWRITLLPLLELYWQQSDPARRTVGWLRMLKRLRKAREPRPLRLSPLHMDVHAGNLVHSASGLKLIDWEYAGDGDIALELAAVWVENTEQHRQLVNDYATRAKIYPAQLWRQVRRWFPWLLMLKAGWFEYRWRQTGDQQFIRLADDTWRQLLIKQ", "OBSERVED_PROPERTY": "total protein half-life in vivo", "QUANTITATIVE_RESULT": 6.3}
{"SEQ": "MAKNYYDITLALAGICQSARLVQQLAHQGHCDADALHVSLNSIIDMNPSSTLAVFGGSEANLRVGLETLLGVLNASSRQGLNAELTRYTLSLMVLERKLSSAKGALDTLGNRINGLQRQLEHFDLQSETLMSAMAAIYVDVISPLGPRIQVTGSPAVLQSPQVQAKVRATLLAGIRAAVLWHQVGGGRLQLMFSRNRLTTQAKQILAHLTPEL", "OBSERVED_PROPERTY": "total protein half-life in vivo", "QUANTITATIVE_RESULT": 6.17}
{"SEQ": "MIWKRKITLEALNAMGEGNMVGFLDIRFEHIGDDTLEATMPVDSRTKQPFGLLHGGASVVLAESIGSVAGYLCTEGEQKVVGLEINANHVRSAREGRVRGVCKPLHLGSRHQVWQIEIFDEKGRLCCSSRLTTAIL", "OBSERVED_PROPERTY": "total protein half-life in vivo", "QUANTITATIVE_RESULT": 4.22}
{"SEQ": "MIEFVYPHTQLVAGVDEVGRGPLVGAVVTAAVILDPARPIAGLNDSKKLSEKRRLALYEEIKEKALSWSLGRAEPHEIDELNILHATMLAMQRAVAGLHIAPEYVLIDGNRCPKLPMPAMAVVKGDSRVPEISAASILAKVTRDAEMAALDIVFPQYGFAQHKGYPTAFHLEKLAEHGATEHHRRSFGPVKRALGLAS", "OBSERVED_PROPERTY": "total protein half-life in vivo", "QUANTITATIVE_RESULT": 1.11}
